target: Tyrosine-protein kinase Lck (Homo sapiens) (UniProt P06239); details: at 1 µM
Sequence (P06239 2-509 limits assumed): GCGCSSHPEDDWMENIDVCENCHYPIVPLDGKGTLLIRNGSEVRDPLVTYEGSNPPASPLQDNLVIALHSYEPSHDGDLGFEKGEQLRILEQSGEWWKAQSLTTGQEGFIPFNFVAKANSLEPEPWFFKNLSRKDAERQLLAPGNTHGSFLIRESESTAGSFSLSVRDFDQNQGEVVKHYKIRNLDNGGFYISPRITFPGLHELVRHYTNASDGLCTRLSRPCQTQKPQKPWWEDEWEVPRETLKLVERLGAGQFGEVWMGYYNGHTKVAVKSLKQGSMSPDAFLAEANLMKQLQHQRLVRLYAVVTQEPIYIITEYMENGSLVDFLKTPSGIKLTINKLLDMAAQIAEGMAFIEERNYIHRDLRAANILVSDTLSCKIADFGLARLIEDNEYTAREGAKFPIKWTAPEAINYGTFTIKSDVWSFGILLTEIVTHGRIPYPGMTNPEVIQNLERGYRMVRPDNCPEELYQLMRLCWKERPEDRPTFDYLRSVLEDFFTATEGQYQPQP
Measured residual activity, listed per entry.
# unit: % | format: bare number

stdin: Quick check: residual activity on Tyrosine-protein kinase Lck (Homo sapiens) (UniProt P06239), item `O=C1Cc2c([nH]c3ccc([N+](=O)[O-])cc23)-c2ccccc2N1` ?
stdout: 22

stdin: Quick check: residual activity on Tyrosine-protein kinase Lck (Homo sapiens) (UniProt P06239), item `COc1ccc(-c2cnc3c(-c4ccsc4)cnn3c2)cc1` ?
stdout: 139

stdin: Quick check: residual activity on Tyrosine-protein kinase Lck (Homo sapiens) (UniProt P06239), item `COc1cc2nccc(Oc3ccc(NC(=S)NC(=O)c4ccccc4C)cc3)c2cc1OC` ?
stdout: 1

---

target: Ribosomal protein S6 kinase alpha-2 (Homo sapiens) (UniProt Q15349); settings: at 1 µM
Sequence (Q15349 whole entry): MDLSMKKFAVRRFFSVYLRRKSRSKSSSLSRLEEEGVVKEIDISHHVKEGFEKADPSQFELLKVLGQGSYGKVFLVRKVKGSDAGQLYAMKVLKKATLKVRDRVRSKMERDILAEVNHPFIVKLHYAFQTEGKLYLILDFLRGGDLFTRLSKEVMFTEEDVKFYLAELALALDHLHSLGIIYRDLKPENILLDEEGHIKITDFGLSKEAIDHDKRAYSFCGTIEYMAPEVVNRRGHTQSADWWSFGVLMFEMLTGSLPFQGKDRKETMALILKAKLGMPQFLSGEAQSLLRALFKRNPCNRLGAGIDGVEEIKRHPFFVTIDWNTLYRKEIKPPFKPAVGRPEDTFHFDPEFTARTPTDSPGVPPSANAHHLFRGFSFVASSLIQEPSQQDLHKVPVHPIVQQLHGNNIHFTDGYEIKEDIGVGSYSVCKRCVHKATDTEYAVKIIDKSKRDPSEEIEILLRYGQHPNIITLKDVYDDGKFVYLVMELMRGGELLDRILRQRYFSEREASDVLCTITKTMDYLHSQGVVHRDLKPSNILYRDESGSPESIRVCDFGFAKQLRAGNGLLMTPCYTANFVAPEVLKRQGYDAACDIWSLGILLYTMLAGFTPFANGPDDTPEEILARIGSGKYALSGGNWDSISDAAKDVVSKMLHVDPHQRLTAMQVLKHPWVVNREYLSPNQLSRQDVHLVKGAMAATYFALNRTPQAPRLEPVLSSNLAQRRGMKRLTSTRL
Measured residual activity, listed per entry.

stdin: Tell me the measured residual activity of `O=S(=O)(NCCNC/C=C/c1ccc(Br)cc1)c1cccc2cnccc12` , please.
stdout: 70%

stdin: Tell me the measured residual activity of `Cc1cc(C)c(/C=C2\C(=O)Nc3ccccc32)[nH]1` , please.
stdout: 27%

stdin: Tell me the measured residual activity of `CC(C)(C)c1nc2c3ccc(F)cc3c3c(=O)[nH]ccc3c2[nH]1` , please.
stdout: 25%

---

target: Tyrosine-protein kinase receptor UFO (Homo sapiens) (UniProt P30530); details: at 10 µM
Sequence (P30530 whole entry): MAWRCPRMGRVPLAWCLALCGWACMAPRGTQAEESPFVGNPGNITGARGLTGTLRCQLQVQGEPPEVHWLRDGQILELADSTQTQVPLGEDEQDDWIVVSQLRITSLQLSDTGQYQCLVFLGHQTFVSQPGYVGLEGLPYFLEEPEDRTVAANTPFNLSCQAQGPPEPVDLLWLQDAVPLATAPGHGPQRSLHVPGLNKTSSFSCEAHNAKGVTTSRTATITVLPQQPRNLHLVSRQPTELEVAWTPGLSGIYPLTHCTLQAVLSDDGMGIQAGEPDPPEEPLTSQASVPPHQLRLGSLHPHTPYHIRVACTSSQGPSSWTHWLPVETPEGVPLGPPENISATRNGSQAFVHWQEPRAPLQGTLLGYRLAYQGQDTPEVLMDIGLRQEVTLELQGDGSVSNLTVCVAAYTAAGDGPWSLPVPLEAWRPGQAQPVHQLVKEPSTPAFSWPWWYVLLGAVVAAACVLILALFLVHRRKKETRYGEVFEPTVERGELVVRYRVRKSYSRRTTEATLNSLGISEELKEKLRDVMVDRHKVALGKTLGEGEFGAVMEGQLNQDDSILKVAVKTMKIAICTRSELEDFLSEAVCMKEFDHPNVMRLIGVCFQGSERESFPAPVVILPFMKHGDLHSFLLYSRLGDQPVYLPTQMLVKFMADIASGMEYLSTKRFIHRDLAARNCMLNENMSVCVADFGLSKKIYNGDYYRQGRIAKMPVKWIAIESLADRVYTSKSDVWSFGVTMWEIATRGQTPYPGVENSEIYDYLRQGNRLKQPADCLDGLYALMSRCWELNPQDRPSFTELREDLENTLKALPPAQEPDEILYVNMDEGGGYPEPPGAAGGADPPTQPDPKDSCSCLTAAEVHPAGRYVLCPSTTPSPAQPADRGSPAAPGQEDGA
Measured residual activity, listed per entry.
# unit: % | format: bare number

Some entries whose results are on file:
{"COMPOUND": "Cn1c2ccccc2c2c3c(c4c5ccccc5n(CCC#N)c4c21)CNC3=O", "MEASURE_UNIT": "%", "residual activity": 32}
{"COMPOUND": "CCOC(=O)c1c(C)[nH]c(/C=C2\\C(=O)Nc3ccccc32)c1C", "MEASURE_UNIT": "%", "residual activity": 81}
{"COMPOUND": "NC(=O)Nc1sc(-c2ccc(F)cc2)cc1C(N)=O", "MEASURE_UNIT": "%", "residual activity": 24}
{"COMPOUND": "O=C(c1cc2cc(O)ccc2[nH]1)c1cc2cc(O)ccc2[nH]1", "MEASURE_UNIT": "%", "residual activity": 15}
{"COMPOUND": "CCN1/C(=C/C(C)=O)Sc2ccc(OC)cc21", "MEASURE_UNIT": "%", "residual activity": 75}

Next compound, please.
stdin: Tell me the measured residual activity of `Nc1n[nH]c2nc3ccccc3nc12` , please.
stdout: 96

---

target: Homeodomain-interacting protein kinase 1 (Homo sapiens) (UniProt Q86Z02); conditions: at 10 µM
Sequence (Q86Z02 whole entry, looked up): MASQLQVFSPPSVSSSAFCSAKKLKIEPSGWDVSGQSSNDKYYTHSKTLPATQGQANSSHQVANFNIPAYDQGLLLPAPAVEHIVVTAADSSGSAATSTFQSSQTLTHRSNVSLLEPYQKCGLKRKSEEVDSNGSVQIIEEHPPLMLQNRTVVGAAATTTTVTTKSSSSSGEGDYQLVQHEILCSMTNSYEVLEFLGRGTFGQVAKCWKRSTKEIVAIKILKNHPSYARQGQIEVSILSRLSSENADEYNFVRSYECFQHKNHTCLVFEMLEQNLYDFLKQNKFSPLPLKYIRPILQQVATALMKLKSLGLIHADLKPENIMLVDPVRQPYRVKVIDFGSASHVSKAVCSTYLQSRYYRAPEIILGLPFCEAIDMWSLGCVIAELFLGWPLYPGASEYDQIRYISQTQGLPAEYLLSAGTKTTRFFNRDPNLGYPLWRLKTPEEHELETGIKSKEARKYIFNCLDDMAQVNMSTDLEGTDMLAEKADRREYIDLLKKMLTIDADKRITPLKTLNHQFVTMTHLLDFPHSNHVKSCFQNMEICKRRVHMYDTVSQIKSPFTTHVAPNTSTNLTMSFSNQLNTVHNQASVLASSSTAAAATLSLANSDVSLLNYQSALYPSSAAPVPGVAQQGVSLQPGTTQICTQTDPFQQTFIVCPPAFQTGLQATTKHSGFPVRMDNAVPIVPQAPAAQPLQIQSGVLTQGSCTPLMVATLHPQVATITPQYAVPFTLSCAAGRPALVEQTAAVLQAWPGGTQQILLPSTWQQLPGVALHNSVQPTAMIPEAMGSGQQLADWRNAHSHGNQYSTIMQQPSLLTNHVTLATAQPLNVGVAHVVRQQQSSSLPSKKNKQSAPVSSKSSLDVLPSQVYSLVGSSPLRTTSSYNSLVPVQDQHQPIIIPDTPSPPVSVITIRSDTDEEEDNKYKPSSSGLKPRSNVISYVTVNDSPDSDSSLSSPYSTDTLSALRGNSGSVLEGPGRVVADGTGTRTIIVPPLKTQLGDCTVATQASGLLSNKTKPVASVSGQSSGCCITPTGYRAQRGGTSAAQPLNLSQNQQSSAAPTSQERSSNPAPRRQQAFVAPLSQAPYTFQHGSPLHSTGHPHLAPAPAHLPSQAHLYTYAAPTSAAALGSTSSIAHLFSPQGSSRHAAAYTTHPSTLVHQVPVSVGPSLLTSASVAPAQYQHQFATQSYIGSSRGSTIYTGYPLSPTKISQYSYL
Description: Millipore: Percentage of residual kinase activity of HIPK1 at 10uM relative to control. Control inhibitor: Phosphoric acid* at 0.3uM. Buffer: 8 mM MOPS pH 7.0, 0.2 mM EDTA
MEASURED_ATTRIBUTE: residual activity (%)
# unit: % | format: bare number

Some entries whose results are on file:
{"COMPOUND": "O=c1cc(N2CCNCC2)oc2c(-c3ccccc3)cccc12", "OBSERVED": 96}
{"COMPOUND": "Nc1n[nH]c2nc3ccccc3nc12", "OBSERVED": 87}
{"COMPOUND": "CC(C)(C)n1nc(Cc2cccc3ccccc23)c2c(N)ncnc21", "OBSERVED": 107}
{"COMPOUND": "O=C(NC(NC(=S)Nc1ccc(F)c([N+](=O)[O-])c1)C(Cl)(Cl)Cl)C(c1ccccc1)c1ccccc1 (centres undefined)", "OBSERVED": 93}

stdin: Tell me the measured residual activity of `CCN(CC)CCNC(=O)c1c(C)[nH]c(/C=C2\C(=O)Nc3ccc(Cl)cc32)c1C` , please.
stdout: 4

stdin: Tell me the measured residual activity of `COc1ccc2c(c1)c(C1=C(c3c[nH]c4ccccc34)C(=O)NC1=O)cn2CCCN(C)C` , please.
stdout: 34

stdin: Tell me the measured residual activity of `CC(C)c1nn(-c2c(Cl)cccc2Cl)c2nc(Cc3ccc(OCCO)cc3)[nH]c(=O)c12` , please.
stdout: 98

stdin: Tell me the measured residual activity of `Nc1ncnc2[nH]nc(Nc3ccc(F)cc3)c12` , please.
stdout: 96

stdin: Tell me the measured residual activity of `O=C1Cc2c([nH]c3ccc(Br)cc23)-c2ccccc2N1` , please.
stdout: 90

stdin: Tell me the measured residual activity of `CC(C)(C)c1nc2c3ccc(F)cc3c3c(=O)[nH]ccc3c2[nH]1` , please.
stdout: 98

stdin: Tell me the measured residual activity of `O=C1NC(=O)c2c1c1c3ccccc3[nH]c1n1cncc21` , please.
stdout: 58

stdin: Tell me the measured residual activity of `O=C(c1ccccc1)c1ccc(N2CCOCC2)cc1O` , please.
stdout: 97

stdin: Tell me the measured residual activity of `CCCC(=O)Oc1ccc2[nH]c(C(=O)c3cc4ccccc4[nH]3)cc2c1` , please.
stdout: 103

stdin: Tell me the measured residual activity of `CC(C)[C@H](CO)Nc1nc(Nc2cc(N)cc(Cl)c2)c2ncn(C(C)C)c2n1` , please.
stdout: 60
